Quick list: PBM binding z-score per entry.
# Test system: THRa homodimer (NR concentration 90 nM)
# protocol summary: PBM binding z-score (relative to random genomic background probes); higher = stronger binding; sequences stand for … in GC…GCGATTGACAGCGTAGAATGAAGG

residue sequence	system tested	PBM binding z-score
CGAAGTAGGTCATTGACAGGACAGTGAATAGTAA	THRa homodimer (NR concentration 90 nM)	0.373
ATCGAAACGTCGAAGGTGAGTATACCCACCCGAA	THRa homodimer (NR concentration 90 nM)	-0.567
GCAGACAGGTGAAACGTAGGTAACTCAGGGTGGC	THRa homodimer (NR concentration 90 nM)	-0.606
ATCCCTAGGTAAAGATAGTTCAGTGAATGCAAAT	THRa homodimer (NR concentration 90 nM)	0.169
ACAGACAGGTGAGTGAAGGTAACTCCGCTGGACG	THRa homodimer (NR concentration 90 nM)	-0.349
CAAACTAGGTCAAAGGACAAAGTCGAGCCAACCA	THRa homodimer (NR concentration 90 nM)	0.809
CGTCCACGGTCAAAGGTCAGTGAAGAGATGACGG	THRa homodimer (NR concentration 90 nM)	0.0529
TCATACAGGTGAAGGTAACTCAGGTACGCAGTCG	THRa homodimer (NR concentration 90 nM)	0.594

These measurements were taken from the supplement of paper PMC6555819.
